- System: T-47D breast
- test.method.notes: NCI tumour cell line growth inhibition, 48 h
result.type: GI50

Record excerpt, results attached:
# compound, measured.on, GI50
data = [
    ("Cc1ncc(-c2ccnc(Nc3ccc(S(C)(=O)=O)cc3)n2)n1C(C)C", "T-47D breast", "1.38 µM"),
    ("Cc1cn2c(/C=N/N=C(N)N)c(-c3ccsc3)nc2s1", "T-47D breast", "2.7 µM"),
    ("O=Nc1c(O)c2ccccc2c2ccccc12", "T-47D breast", "1.32 µM"),
    ("COc1ccc(-c2nc(-c3nc4ccc(C(F)(F)F)cc4[nH]3)c3ccccn23)cc1", "T-47D breast", "5.33 µM"),
    ("CN(C)c1ccc(/C=N/NC(=O)c2cccc3ccccc23)c(Cl)c1", "T-47D breast", "2.95 µM"),
    ("CCCCCSC1C2C(=O)C(Br)=CC13CCNc1c(O)c4c5c(c13)=[N+]2CCC=5C=N4 (stereo not drawn)", "T-47D breast", "1.74 µM"),
    ("CC(C)(C)OC(=O)NCCCCCCCCCCn1c2c(c3ccccc3c1=O)C(=O)c1ccccc1-2", "T-47D breast", "> 100 µM"),
    ("CN(C)c1ccc(C(=C2C=CC(=[N+](C)C)C=C2)c2ccccc2Cl)cc1", "T-47D breast", "0.188 µM"),
    ("Clc1ccc(N2CCC(N3CCCC3)CC2)cc1-c1nc2ccccc2[nH]1", "T-47D breast", "21.6 µM"),
    ("Oc1ccccc1C=Nc1ccccc1N=Cc1ccccc1O.[Cu+2]", "T-47D breast", "1.68 µM"),
]

Please give GI50, item by item, for the list that follows.
1. C[C@]12CC[C@@H]3c4ccc(O)cc4CC[C@H]3[C@@H]1CC[C@@H]2NS(=O)(=O)c1ccc2ccccc2c1
2. O=C(c1ccccc1)c1nn(-c2ccccc2)c2nc3nc(-c4ccccc4)cc(=O)n3nc12
3. CC(=O)c1cccc(NC(=O)c2ccc(NC3=C(Cl)C(=O)N(Cc4ccccc4)C3=O)cc2)c1
4. CC(OC(=O)N(N(CCCl)S(C)(=O)=O)S(C)(=O)=O)c1ccc([N+](=O)[O-])cc1 (stereo not drawn)
5. CC/C=C\C[C@H](O)C/C=C1/C(=O)C=C[C@@H]1C/C=C\CCCC(=O)NC

["3.9 µM", "28.9 µM", "25.1 µM", "> 69.2 µM", "2.32 µM"]

----------
- Test system: PC-3 prostate
- test.method.notes: NCI tumour cell line growth inhibition, 48 h
Please go through the items and note down their GI50.

Record excerpt, results attached:
# molecule, result.type, assay.result
measured = [
    ("COc1cc(NC(C)CCCN)c2ncccc2c1Sc1ccc(Cl)cc1 (stereo not given)", "GI50", "1650 nM"),
    ("CN(C)CCNc1nc2ccccc2c2occc12", "GI50", "36000 nM"),
    ("Nc1cc2nc3ccccc3oc-2cc1=O", "GI50", "16700 nM"),
    ("COc1ccc(-c2nc(-c3nc4ccc(C(F)(F)F)cc4[nH]3)c3ccccn23)cc1", "GI50", "4730 nM"),
    ("N#C/C(=C\\c1cccc2cnccc12)N1N=NC2C=CC=CC21 (stereo not given)", "GI50", "2760 nM"),
]

Please give GI50, item by item, for the list that follows.
1. CN1CCN(c2ccc(C(=O)Nc3cccc(C#Cc4cccc5[nH]nc(N)c45)c3)cc2C(F)(F)F)CC1
2. CCCCCSC1C2C(=O)C(Br)=CC13CCNc1c(O)c4c5c(c13)=[N+]2CCC=5C=N4 (stereo not given)
3. Cc1ncc(-c2ccnc(Nc3ccc(S(C)(=O)=O)cc3)n2)n1C(C)C
4. CCN(CC)c1ccc(/C=C/C=C(/C#N)C(N)=S)cc1
5. CCN1C(=O)N(CC)C2C1NN=c1s/c(=C\c3cccc([N+](=O)[O-])c3)c(=O)n12 (stereo not given)

953 nM
2000 nM
1300 nM
5210 nM
85.3 nM
